Biological target: T1, recombinant human HER4/Fc chimera (receptor extracellular domain/Fc chimera) (human, UniProt Q15303 26-651)
T1 construct: extracellular domain; Bought from R&D Systems; Captured on plates coated with anti-Fc antibody; not shown: Fc part (and any linker) of the purchased R&D Systems chimera
T1 sequence (looked up): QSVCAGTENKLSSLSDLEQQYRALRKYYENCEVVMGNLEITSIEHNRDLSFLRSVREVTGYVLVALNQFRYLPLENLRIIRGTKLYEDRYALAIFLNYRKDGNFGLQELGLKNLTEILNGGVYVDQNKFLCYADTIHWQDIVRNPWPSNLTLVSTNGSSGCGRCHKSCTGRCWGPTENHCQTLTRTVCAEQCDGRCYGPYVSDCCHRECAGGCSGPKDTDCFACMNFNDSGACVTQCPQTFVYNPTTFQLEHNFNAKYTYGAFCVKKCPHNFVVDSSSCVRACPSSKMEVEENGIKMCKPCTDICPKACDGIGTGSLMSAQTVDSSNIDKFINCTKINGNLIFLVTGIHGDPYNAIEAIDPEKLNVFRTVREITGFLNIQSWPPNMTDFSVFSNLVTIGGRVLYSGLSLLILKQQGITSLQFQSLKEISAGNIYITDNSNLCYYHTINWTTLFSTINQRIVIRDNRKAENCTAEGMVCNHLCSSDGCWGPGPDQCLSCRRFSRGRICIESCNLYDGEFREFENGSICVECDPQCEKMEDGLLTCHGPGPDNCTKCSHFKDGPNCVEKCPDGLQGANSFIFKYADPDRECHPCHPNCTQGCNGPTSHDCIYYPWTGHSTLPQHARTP
Experiment: sandwich ELISA; receptor ECD/Fc chimera captured on anti-Fc plates, biotin-labeled ligand titrated, streptavidin-HRP detection
measured.parameter: Kd (nM)

- NSDSECPLSHDGYCLNDGVCMYTEAKDEYACNCVVGYIGERCQYYDLL (ligand, not fully specified; biotin label; paragraph 113 says derivatized at the N-terminus; paragraph 97 says B5-3M2 has two sites for biotinylation, the N terminus and K26, Made in E. coli; also called tagged (biotinylated) DNL; EGF1-48 H16N, I23T, L26K, K28E, R45Y, K48L) [Pan-HER DNL B5-3M2 tagged with biotin]: 4

Each recorded value in this set is attributed to patent US20200369737A1.
